- Tested on: Hepatitis C virus
- test: Antiviral activity against Hepatitis C virus assessed as blockage of HCV pseudo paricle entry to human Hep3B cells at 1 uM after 72 hrs
- Format: functional, Hepacivirus hominis, Hep 3B2
Each entry below carries its reported Activity.
Number in %, nothing else.

# annotated cases, reported Activity shown
- CC1(C)CC[C@]2(C(=O)O)[C@H](O)C[C@]3(C)C(=CC[C@@H]4[C@@]5(C)CC[C@H](O)C(C)(C)[C@@H]5C[C@H](O)[C@]43C)[C@@H]2C1: 30.4
- CC1(C)C[C@H]2C3=CC[C@@H]4[C@@]5(C)CC[C@H](O)C(C)(C)[C@@H]5CC[C@@]4(C)[C@]3(C)C[C@@H](O)[C@@]2(C(=O)O)C[C@@H]1O: -5.7

Query: Request the reported Activity associated with "CC1(C)C(=O)CC[C@]2(C)[C@H]3CC=C4[C@@H]5C[C@](C)(CO)CC[C@]5(C(=O)O)[C@H](O)C[C@@]4(C)[C@]3(C)CC[C@@H]12"
Response: 3.1

Query: Request the reported Activity associated with "CC1(C)CC[C@]2(C(=O)O)[C@H](O)C[C@]3(C)C(=CC[C@@H]4[C@@]5(C)[C@H](O)C[C@H](O)C(C)(C)[C@@H]5CC[C@]43C)[C@@H]2C1"
Response: 14.3

Query: Request the reported Activity associated with "CC1(C)C[C@H]2C3=CC[C@@H]4[C@@]5(C)[C@H](O)C[C@H](O)C(C)(C)[C@@H]5CC[C@@]4(C)[C@]3(C)C[C@@H](O)[C@@]23C[C@@H]1OC3=O"
Response: 28.9

Query: Request the reported Activity associated with CC1(C)CC[C@]2(C(=O)O)[C@H](O)C[C@]3(C)C(=CC[C@@H]4[C@@]5(C)CC[C@H](O)C(C)(C)[C@@H]5CC[C@]43C)[C@H]2C1 [ECHINOCYSTIC ACID]
Response: 21.3

Query: Request the reported Activity associated with "CC1(C)CC[C@@]2(C(=O)O)C(=C3C=C[C@@H]4[C@@]5(C)[C@H](O)C[C@H](O)C(C)(C)[C@@H]5CC[C@@]4(C)[C@]3(C)C[C@H]2O)C1"
Response: 2.3

Query: Request the reported Activity associated with "CC1(C)C[C@H]2C3=CC[C@@H]4[C@@]5(C)CC[C@H](O)C(C)(C)[C@@H]5[C@H](O)C[C@@]4(C)[C@]3(C)C[C@@H](O)[C@@]23C[C@@H]1OC3=O"
Response: -1

* * *

- Tested on: Hepatitis C virus
- test: Antiviral activity against Hepatitis C virus assessed as blockage of HCV pseudo paricle entry to human Hep3B cells at 5 uM after 72 hrs
- Assay type: functional, Hepacivirus hominis, Hep 3B2
// bucketize Activity: lower segment = under 30%, middle segment = from 30% up to 40%, upper segment = 40% and over

Before answering, review these 4 worked examples.
- CC1(C)C[C@H]2C3=CC[C@@H]4[C@@]5(C)CC[C@H](O)C(C)(C)[C@@H]5CC[C@@]4(C)[C@]3(C)C[C@@H](O)[C@@]2(C(=O)O)C[C@@H]1O: lower segment
- CC1(C)C[C@H]2C3=CC[C@@H]4[C@@]5(C)CC[C@H](O)C(C)(C)[C@@H]5CC[C@@]4(C)[C@]3(C)C[C@@H](O)[C@@]23C[C@@H]1OC3=O: middle segment
- CC1(C)CC[C@]2(C(=O)O)[C@H](O)C[C@]3(C)C(=CC[C@@H]4[C@@]5(C)[C@H](O)C[C@H](O)C(C)(C)[C@@H]5CC[C@]43C)[C@@H]2C1: middle segment
- CC1(C)[C@@H](O)CC[C@]2(C)[C@H]3CC=C4[C@@H]5C[C@](C)(CO)CC[C@]5(C(=O)O)[C@H](O)C[C@@]4(C)[C@]3(C)CC[C@@H]12: middle segment

Query: # bin label for "CC1(C)CC2=C3C=C[C@@H]4[C@@]5(C)CC[C@H](O)C(C)(C)[C@@H]5CC[C@@]4(C)[C@]3(C)C[C@@H](O)[C@@]23C[C@@H]1OC3=O"
Response: middle segment

Query: # bin label for "CC1(C)CC[C@]2(C(=O)O)[C@H](O)C[C@]3(C)C(=CC[C@@H]4[C@@]5(C)CCC(=O)C(C)(C)[C@@H]5CC[C@]43C)[C@@H]2C1"
Response: upper segment

Query: # bin label for "CC1(C)CC[C@]2(C(=O)O)[C@H](O)C[C@]3(C)C(=CC[C@@H]4[C@@]5(C)CC[C@H](O)C(C)(C)[C@@H]5C[C@H](O)[C@]43C)[C@@H]2C1"
Response: upper segment

* * *

- test: Hemolytic activity in rabbit RBC assessed as hemolysis after 60 mins by microtitre plate reader analysis
- Type: ADME, cell-based, Oryctolagus cuniculus
- assay conditions: erythrocyte, 1 h
outcome measure: Activity

• CC1(C)CC2=C3C=C[C@@H]4[C@@]5(C)CC[C@H](O)C(C)(C)[C@@H]5CC[C@@]4(C)[C@]3(C)C[C@@H](O)[C@@]23C[C@@H]1OC3=O = Non-toxic
• CC1(C)CC[C@]2(C(=O)O)[C@H](O)C[C@]3(C)C(=CC[C@@H]4[C@@]5(C)[C@H](O)C[C@H](O)C(C)(C)[C@@H]5CC[C@]43C)[C@@H]2C1 = Non-toxic
• CC1(C)[C@@H](O)CC[C@]2(C)[C@H]3CC=C4[C@@H]5C[C@](C)(CO)CC[C@]5(C(=O)O)[C@H](O)C[C@@]4(C)[C@]3(C)CC[C@@H]12 = Non-toxic

* * *

- Test system: Hepatitis C virus
- test: Antiviral activity against Hepatitis C virus assessed as blockage of HCV pseudo paricle entry to human Hep3B cells at 1 uM after 72 hrs
- Type: functional, Hepacivirus hominis, Hep 3B2
Rule for this label: 1 means Activity is less than 10%; 0 means Activity is at least 10%.

Before answering, review these 4 worked examples.
• CC1(C)CC[C@]2(C(=O)O)[C@H](O)C[C@]3(C)C(=CC[C@@H]4[C@@]5(C)CCC(=O)C(C)(C)[C@@H]5CC[C@]43C)[C@@H]2C1 = 1
• CC1(C)CC2=C3C=C[C@@H]4[C@@]5(C)CC[C@H](O)C(C)(C)[C@@H]5CC[C@@]4(C)[C@]3(C)C[C@@H](O)[C@@]23C[C@@H]1OC3=O = 0
• CC1(C)CC[C@@]2(C(=O)O)C(=C3C=C[C@@H]4[C@@]5(C)CC[C@H](O)C(C)(C)[C@@H]5C[C@H](O)[C@@]4(C)[C@]3(C)C[C@H]2O)C1 = 0
• CC1(C)C[C@H]2C3=CC[C@@H]4[C@@]5(C)CC[C@H](O)C(C)(C)[C@@H]5CC[C@@]4(C)[C@]3(C)C[C@@H](O)[C@@]23C[C@@H]1OC3=O = 0

Now take the following molecule into account.
Query: Would you kindly verify if Activity of "CC1(C)[C@@H](O)CC[C@]2(C)[C@H]3CC=C4[C@@H]5C[C@](C)(CO)CC[C@]5(C(=O)O)[C@H](O)C[C@@]4(C)[C@]3(C)CC[C@@H]12" is strictly less than 10%?
Response: 0

* * *

Each entry below carries its reported Activity.
- Tested on: Hepatitis C virus
- test: Antiviral activity against Hepatitis C virus assessed as blockage of HCV pseudo paricle entry to human Hep3B cells at 5 uM after 72 hrs
- Format: functional, Hepacivirus hominis, Hep 3B2
Number in %, nothing else.

- CC1(C)C[C@H]2C3=CC[C@@H]4[C@@]5(C)CC[C@H](O)C(C)(C)[C@@H]5[C@H](O)C[C@@]4(C)[C@]3(C)C[C@@H](O)[C@@]23C[C@@H]1OC3=O: 4.7
- CC1(C)C(=O)CC[C@]2(C)[C@H]3CC=C4[C@@H]5C[C@](C)(CO)CC[C@]5(C(=O)O)[C@H](O)C[C@@]4(C)[C@]3(C)CC[C@@H]12: -3.3

Query: Request the reported Activity associated with "CC1(C)CC[C@@]2(C(=O)O)C(=C3C=C[C@@H]4[C@@]5(C)CC[C@H](O)C(C)(C)[C@@H]5C[C@H](O)[C@@]4(C)[C@]3(C)C[C@H]2O)C1"
Response: 31.9

Query: Request the reported Activity associated with "CC1(C)CC[C@@]2(C(=O)O)C(=C3C=C[C@@H]4[C@@]5(C)[C@H](O)C[C@H](O)C(C)(C)[C@@H]5CC[C@@]4(C)[C@]3(C)C[C@H]2O)C1"
Response: 26.3

Query: Request the reported Activity associated with "CC1(C)C[C@H]2C3=CC[C@@H]4[C@@]5(C)[C@H](O)C[C@H](O)C(C)(C)[C@@H]5CC[C@@]4(C)[C@]3(C)C[C@@H](O)[C@@]23C[C@@H]1OC3=O"
Response: 72.6

Query: Request the reported Activity associated with "CC1(C)CC[C@]2(C(=O)O)[C@H](O)C[C@]3(C)C(=CC[C@@H]4[C@@]5(C)CC[C@H](O)C(C)(C)[C@@H]5CC[C@]43C)[C@H]2C1"
Response: 75.5
